system: S. cerevisiae eIF2B mutant, luciferase reporter luminescence
procedure.summary: potency on yeast eIF2B luminescence signal – S. cerevisiae, mutant, wild-type, growth, dose response (AID 792)
Results filed as inconclusive are left out. Active and inactive are the calls of the source. How the calls were made is not given here.
readout.kind: IC50

Prompt: Quick one: IC50 for CN1C(=O)CC2(CC(=O)N(Cc3ccccc3)C2)C1=O (stereo unspecified) ?
Response: > 100 µM (inactive)

Prompt: Quick one: IC50 for CCOc1ccccc1NC(=O)c1ccccc1-c1nc(-c2ccccc2)no1 ?
Response: > 100 µM (inactive)

Prompt: Quick one: IC50 for CCCC1CC(C)(c2csc(Nc3ccc(OCC)cc3)n2)OC1=O (stereo unspecified) ?
Response: > 100 µM (inactive)

Prompt: Quick one: IC50 for CCOC(=O)c1oc2cc(O)ccc2c(=O)c1-c1csc(C)n1 ?
Response: > 100 µM (inactive)

Prompt: Quick one: IC50 for Cc1[nH]c(=O)c(C#N)c2c1CSC(C)(C)C2 ?
Response: > 100 µM (inactive)

Prompt: Quick one: IC50 for CCOc1ccc(-n2cc(C(=O)N3CCC(C)CC3)c3cc(OC)c(OC)cc3c2=O)cc1 ?
Response: > 100 µM (inactive)

---

Would you mind telling me the reported IC50 of each entry?
system: S. cerevisiae eIF2B mutant, luciferase reporter luminescence
procedure.summary: potency on yeast eIF2B luminescence signal – S. cerevisiae, mutant, wild-type, growth, dose response (AID 792)
Records with an inconclusive call do not appear. Activity calls are given as the source filed them. How the calls were made is not given here.

Prompt: Quick one: IC50 for COc1ccc(C2NC(=O)NC(C)=C2C(C)=O)cc1 (stereo not drawn) ?
Response: > 100 µM (inactive)

Prompt: Quick one: IC50 for COc1ccccc1-n1nc(C(=O)Nc2ccc3c(c2)OCO3)c2ccccc2c1=O ?
Response: > 100 µM (inactive)

Prompt: Quick one: IC50 for CC(=O)NC(CCS(C)(=O)=O)C(=O)Nc1ccccc1Cl (stereo not drawn) ?
Response: > 100 µM (inactive)

Prompt: Quick one: IC50 for CC(=O)c1cnc2c(-c3ccc(Cl)cc3)c(C)nn2c1C ?
Response: > 100 µM (inactive)

Prompt: Quick one: IC50 for C=CCN(C(=O)Cn1c(C(=O)OC)cc2oc(C)cc21)c1ccccc1 ?
Response: > 100 µM (inactive)

Prompt: Quick one: IC50 for Cc1ccc(-c2cn(S(=O)(=O)c3cccc4nsnc34)nc2N)cc1 ?
Response: > 100 µM (inactive)

Prompt: Quick one: IC50 for COc1cc(S(=O)(=O)N(Cc2cccnc2)Cc2ccco2)ccc1-n1cnnn1 ?
Response: > 100 µM (inactive)

Prompt: Quick one: IC50 for CCN(CC)c1ncnc2sc(C(=O)N3CCN(c4ccccc4)CC3)c(C)c12 ?
Response: > 100 µM (inactive)

Prompt: Quick one: IC50 for CCC(=O)N(Cc1cc(=O)[nH]c2ccccc12)c1cccc(C)c1 ?
Response: > 100 µM (inactive)

Prompt: Quick one: IC50 for COc1ccc(N/C=C(\C#N)c2nc3ccccc3n2C)c(OC)c1 ?
Response: > 100 µM (inactive)

Prompt: Quick one: IC50 for CCOC(=O)CSc1nncc2ccc(OC)c(OC)c12 ?
Response: > 100 µM (inactive)

Prompt: Quick one: IC50 for CCC(=O)N1CCc2cc(S(=O)(=O)NC(C(=O)NCc3ccc(F)cc3)C(C)C)ccc21 (stereo not drawn) ?
Response: > 100 µM (inactive)

Prompt: Quick one: IC50 for CCC(C)c1ccc(OCC(=O)O)cc1 (stereo not drawn) ?
Response: > 100 µM (inactive)

Prompt: Quick one: IC50 for Cc1cccc(Cn2cnc3c(nnn3Cc3ccc(Cl)cc3)c2=O)c1 ?
Response: > 100 µM (inactive)

Prompt: Quick one: IC50 for CCn1c(C)c(/C=N/Nc2nc3ccccc3s2)c2ccccc21 ?
Response: > 100 µM (inactive)

Prompt: Quick one: IC50 for O=C(CCNS(=O)(=O)c1ccc2c(c1)CCC(=O)N2)NCc1cccnc1 ?
Response: > 100 µM (inactive)

Prompt: Quick one: IC50 for C=CCn1c(SCc2c(Cl)cccc2Cl)nnc1-c1cccnc1 ?
Response: > 100 µM (inactive)

Prompt: Quick one: IC50 for CCc1ccc2oc(-c3cccc(NC(=O)c4cccnc4)c3)nc2c1 ?
Response: > 100 µM (inactive)

Prompt: Quick one: IC50 for COc1ccccc1CNC(=O)CN1CCC(NC(=O)c2ccccc2F)CC1 ?
Response: > 100 µM (inactive)

Prompt: Quick one: IC50 for Cc1c(O)c(CN2CCCC2)cc2c1oc(=O)c1ccccc12 ?
Response: > 100 µM (inactive)

Prompt: Quick one: IC50 for CCOC(=O)CC1=NC(=O)CS1 ?
Response: > 100 µM (inactive)

Prompt: Quick one: IC50 for CCSc1nnc(-c2ccc(S(=O)(=O)NCc3cccs3)cc2)o1 ?
Response: > 100 µM (inactive)

---

system: S. cerevisiae eIF2B mutant, luciferase reporter luminescence
procedure.summary: potency on yeast eIF2B luminescence signal – S. cerevisiae, mutant, wild-type, growth, dose response (AID 792)
condition.parameters: measured here: mutant yeast growth
pIC50: −log10 of the molar value. Inconclusive results are not listed.
readout.kind: pIC50

Prompt: Quick one: pIC50 for Cc1ccc(C)c(N=C2CCCN2Cc2ccccc2)c1C#N ?
Response: < 4.00

Prompt: Quick one: pIC50 for COc1ccc(C2C=C(c3ccccc3)Nc3nnnn32)cc1 (stereo not drawn) ?
Response: < 4.00

Prompt: Quick one: pIC50 for CCOC(=O)c1nn(-c2cccc(Cl)c2)c2nc(CC(C)C)c(C#N)c(=O)n12 ?
Response: < 4.00

Prompt: Quick one: pIC50 for Cc1ccc(C(=O)Nc2ncc(C)s2)o1 ?
Response: < 4.00

Prompt: Quick one: pIC50 for Cc1cccc(N2C(=O)c3cccnc3C2=O)c1 ?
Response: < 4.00

Prompt: Quick one: pIC50 for Cc1nc(N2CCN(C(=O)c3ccco3)CC2)c2c3c(sc2n1)CCCC3 ?
Response: < 4.00

Prompt: Quick one: pIC50 for C=CCc1cccc(CNc2nc3ccccc3n2C(C)C)c1O ?
Response: < 4.00

Prompt: Quick one: pIC50 for Cc1cc(C)nc(Nc2n[nH]c(COc3ccc(Cl)cc3)n2)n1 ?
Response: < 4.00

Prompt: Quick one: pIC50 for COC(=O)c1ccc(NS(=O)(=O)N(C)C)cc1 ?
Response: < 4.00

Prompt: Quick one: pIC50 for CC(=O)Nc1ccc(OCC(O)CN2CCN(S(=O)(=O)c3ccc(NC(C)=O)cc3)CC2)cc1 (stereo not drawn) ?
Response: < 4.00

Prompt: Quick one: pIC50 for CCOC(=O)c1c(N)nn(C(C)=O)c1-c1ccccc1 ?
Response: < 4.00

Prompt: Quick one: pIC50 for Cc1cccc2cc3c(NC(=O)c4ccccn4)nn(C)c3nc12 ?
Response: 4.19

Prompt: Quick one: pIC50 for Cc1nc2ccc(NC(=O)Cc3ccsc3)cc2s1 ?
Response: < 4.00

Prompt: Quick one: pIC50 for CC(=O)/C=C(\C)Nc1ccc(-c2cnc(-c3ccccc3)o2)cc1 ?
Response: < 4.00

Prompt: Quick one: pIC50 for Cc1ccc(-c2nnc3ccc(SCC(=O)NCc4ccco4)nn23)cc1 ?
Response: < 4.00

Prompt: Quick one: pIC50 for CCOC(=O)c1oc2cc(O)ccc2c(=O)c1-c1csc(C)n1 ?
Response: < 4.00

Prompt: Quick one: pIC50 for CCOC(=O)N1CCN(C(=O)CN(Cc2ccc(Cl)cc2)S(=O)(=O)c2ccc(C)cc2)CC1 ?
Response: < 4.00

Prompt: Quick one: pIC50 for O=C(c1ccc(Br)o1)N1CCCc2ccccc21 ?
Response: < 4.00

Prompt: Quick one: pIC50 for CCN(CC)c1ccc(NC(=O)c2cccc(OC)c2)c(C)c1 ?
Response: < 4.00

Prompt: Quick one: pIC50 for CCOC(=O)Cn1c(=O)c2c(nc3n2CCN3Cc2ccccc2)n(C)c1=O ?
Response: < 4.00

Prompt: Quick one: pIC50 for CN1CCN(C(=O)CSc2nc(-c3ccncc3)ccc2C#N)CC1 ?
Response: < 4.00

Prompt: Quick one: pIC50 for CCn1c(CNc2nc3ccccc3n2C(C)C)nc2ccccc21 ?
Response: < 4.00

Prompt: Quick one: pIC50 for Cc1ccc2c(c1)C1CN(C)CCC1N2C(=O)Nc1cccc(Cl)c1 (stereo not drawn) ?
Response: < 4.00

Prompt: Quick one: pIC50 for c1ccc2c(c1)CNc1ccccc1O2 ?
Response: < 4.00

Prompt: Quick one: pIC50 for Cc1csc(NC(=O)c2cccn2C)n1 ?
Response: < 4.00

Prompt: Quick one: pIC50 for O=C(CSc1nccc(=O)[nH]1)N1CCCc2ccccc21 ?
Response: < 4.00

Prompt: Quick one: pIC50 for COC(=O)c1cc2occc2n1CC(=O)Nc1ccc(OC)c(OC)c1 ?
Response: < 4.00

Prompt: Quick one: pIC50 for CC(C)NC(=O)CCNS(=O)(=O)c1ccc(Br)cc1 ?
Response: 4.62

Prompt: Quick one: pIC50 for O=C(CCc1ccccc1)Nc1ccc(Cl)cn1 ?
Response: < 4.00

Prompt: Quick one: pIC50 for CCC(C)c1ccc(OCC(=O)O)cc1 (stereo not drawn) ?
Response: < 4.00

Prompt: Quick one: pIC50 for Cc1nnc(NC2CCCCC2)[nH]c1=O ?
Response: < 4.00

Prompt: Quick one: pIC50 for Cn1c(/C(C#N)=C(\O)CN2CCN(Cc3ccccc3)CC2)nc2ccccc21 ?
Response: < 4.00

Prompt: Quick one: pIC50 for Cc1cc(=O)[nH]c(N=N/C(=N/Nc2ccc(O)cc2)c2ccccc2)n1 ?
Response: < 4.00

Prompt: Quick one: pIC50 for Cc1cc(C(=O)Nc2sc3c(c2C#N)CCC(C)C3)no1 (stereo not drawn) ?
Response: < 4.00

Prompt: Quick one: pIC50 for Cc1[nH]c(=O)c(C#N)c2c1CSC(C)(C)C2 ?
Response: < 4.00

Prompt: Quick one: pIC50 for CCCCC(=O)Nc1ccc(N2CCN(S(C)(=O)=O)CC2)cc1 ?
Response: < 4.00

Prompt: Quick one: pIC50 for COCc1cc(=O)[nH]c(Nc2nc3ccc(C)cc3o2)n1 ?
Response: < 4.00

Prompt: Quick one: pIC50 for Cc1ccc2c(c1)N(CC(=O)NCc1cccnc1)C(=O)CO2 ?
Response: < 4.00

Prompt: Quick one: pIC50 for Cn1c(=O)[nH]c(=O)c2c1nc(SCC(O)CO)n2Cc1ccccc1Cl (stereo not drawn) ?
Response: < 4.00

Prompt: Quick one: pIC50 for COc1cccc(C(=O)Nc2cccc(C(=O)N3CCOCC3)c2)c1 ?
Response: < 4.00

Prompt: Quick one: pIC50 for COc1ccc(NC(=O)CSc2ncnc3c2cnn3Cc2ccccc2)cc1OC ?
Response: < 4.00

Prompt: Quick one: pIC50 for CCN(CC)c1ncnc2sc(C(=O)N3CCN(c4ccc(OC)cc4)CC3)c(C)c12 ?
Response: < 4.00

Prompt: Quick one: pIC50 for CCOC(=O)c1ccc(N2C(=O)C=CC2=O)cc1 ?
Response: 5.22
